Biological target: SARS2 coronavirus 3CL protease (Severe acute respiratory syndrome coronavirus 2)
Assay: biochemical
Conditions: 5 nM enzyme, 30 min pre-incubation with compound, 15 μM peptide substrate, 4 h at room temperature; read-out: FRET Potency (nM); IC50 values in the SARS2 3CLPro FRET assay
property-label: log10 of IC50 (log10 of the value in nM)
Annotation: log10 of IC50, nM basis.

Past entries and their recorded results:
- compound: "CNC(=O)C(=O)[C@H](C[C@@H]1CCNC1=O)NC(=O)c1cc(Cl)ccc1NC(=O)OCc1ccccc1"
  log10 of IC50: 0.81
- compound: "CNC(=O)C(=O)[C@H](C[C@@H]1CCNC1=O)NC(=O)c1cc(Cl)ccc1NC(=O)OC1(C)CC1"
  log10 of IC50: 1.27
- compound: "CNC(=O)C(=O)[C@H](C[C@@H]1C[C@@H](C)NC1=O)NC(=O)c1cc(Cl)ccc1NC(=O)C1CCCC1(F)F (stereo partly shown) [Example 185]"
  log10 of IC50: 0.95

Answer with the recorded log10 of IC50 of "C[C@@H]1C[C@@H](C[C@H](NC(=O)c2cc(F)cnc2NC(=O)C2CC(F)(F)C2)C(=O)C(=O)NC2CC2)C(=O)N1" only. 1.31

Dear colleague, please send me the reported log10 of IC50 for CNC(=O)C(=O)[C@H](C[C@@H]1C[C@@H](C)NC1=O)NC(=O)c1cc(Cl)ccc1NC(=O)C(C)c1ccc(C(F)(F)F)nc1 (single isomer, unassigned) [Example 230] when you can. 0.85

// fetch log10 of IC50 given entry "CNC(=O)C(=O)[C@H](C[C@@H]1C[C@@H](C)NC1=O)NC(=O)c1cc(Cl)c(Cl)cc1NC(=O)OC1CC1" 1.02

Entry "CNC(=O)C(=O)[C@H](C[C@@H]1C[C@@H](C)NC1=O)NC(=O)c1cc(F)c(F)cc1NC(=O)OC1CC1" needs its log10 of IC50 filled in; supply it. 1.30

Please report log10 of IC50 for the following compound: "CNC(=O)C(=O)[C@H](C[C@@H]1C[C@@H](C)NC1=O)NC(=O)c1cc(Cl)ccc1NC(=O)C1CCC(F)(F)CC1" 0.97

###

Molecular target: SARS2 coronavirus 3CL protease (Severe acute respiratory syndrome coronavirus 2)
Assay: biochemical
Conditions: 5 nM enzyme, 30 min pre-incubation with compound, 15 μM peptide substrate, 4 h at room temperature; read-out: FRET Potency (nM); IC50 values in the SARS2 3CLPro FRET assay
property-label: IC50 (nM)
// note: answer is a bare numeric in nM

Solved cases below.
- compound: "C[C@@H]1C[C@@H](C[C@H](NC(=O)c2cc(F)c(F)cc2NC(=O)c2cncc(C(F)(F)F)c2)C(=O)C(=O)NC2CC2)C(=O)N1 [Example 99]"
  study-target: "SARS2 coronavirus 3CL protease (Severe acute respiratory syndrome coronavirus 2)"
  IC50 / nM: 13
- compound: "C[C@@H]1C[C@@H](C[C@H](NC(=O)c2cc(Cl)ccc2NC(=O)CCC(F)(F)F)C(=O)C(=O)NCc2nc[nH]n2)C(=O)N1 [Example 116]"
  study-target: "SARS2 coronavirus 3CL protease (Severe acute respiratory syndrome coronavirus 2)"
  IC50 / nM: 20.9
- compound: "CNC(=O)C(=O)[C@H](C[C@@H]1C[C@@H](C)NC1=O)NC(=O)c1cc(Cl)c(F)cc1NC(=O)C1(CC(F)(F)F)CC1 [Example 214]"
  study-target: "SARS2 coronavirus 3CL protease (Severe acute respiratory syndrome coronavirus 2)"
  IC50 / nM: 6.8
- compound: "C[C@@H]1C[C@@H](C[C@H](NC(=O)c2cc(Cl)ccc2NC(=O)c2ccc(C(F)(F)F)nc2)C(=O)C(=O)NC2CC2)C(=O)N1 [Example 225]"
  study-target: "SARS2 coronavirus 3CL protease (Severe acute respiratory syndrome coronavirus 2)"
  IC50 / nM: 6.8
- compound: "CNC(=O)C(=O)[C@H](C[C@@H]1CCNC1=O)NC(=O)c1cc(Cl)ccc1NC(=O)C12CC(F)(C1)C2 [Example 47]"
  study-target: "SARS2 coronavirus 3CL protease (Severe acute respiratory syndrome coronavirus 2)"
  IC50 / nM: 8.8

# assay system SARS2 coronavirus 3CL protease (Severe acute respiratory syndrome coronavirus 2): give IC50 of C[C@@H]1C[C@@H](C[C@H](NC(=O)c2c(NC(=O)c3ccnc(C(F)(F)F)c3)cc(F)c(F)c2F)C(=O)C(=O)NC2CC2)C(=O)N1 [Example 233] 44

Fill: IC50 (SARS2 coronavirus 3CL protease (Severe acute respiratory syndrome coronavirus 2)) for this compound CNC(=O)C(=O)[C@H](C[C@@H]1C[C@@H](C)NC1=O)NC(=O)c1cc(Cl)ccc1NC(=O)C(C)c1cscn1 (stereo partly shown) [Example 195] 3.1

Given C[C@@H]1C[C@@H](C[C@H](NC(=O)c2cc(C(F)F)ccc2NC(=O)c2ccnc(C(F)(F)F)c2)C(=O)C(=O)NC2CC2)C(=O)N1 [Example 232] , report its IC50 on SARS2 coronavirus 3CL protease (Severe acute respiratory syndrome coronavirus 2). 10.4

// fetch IC50; item: CNC(=O)C(=O)[C@H](C[C@@H]1CCNC1=O)NC(=O)c1cc(Cl)ccc1NC(=O)C1CC1C(F)(F)F (stereo partly shown) [Example 176] ; system: SARS2 coronavirus 3CL protease (Severe acute respiratory syndrome coronavirus 2) 2.5

Determine reported IC50 for C[C@@H]1C[C@@H](C[C@H](NC(=O)c2cc(Cl)cc(F)c2NC(=O)CCC(F)(F)F)C(=O)C(=O)NC2CC2)C(=O)N1 [Example 213] ; test system: SARS2 coronavirus 3CL protease (Severe acute respiratory syndrome coronavirus 2). 15.4

Give IC50 for this entry on SARS2 coronavirus 3CL protease (Severe acute respiratory syndrome coronavirus 2): CNC(=O)C(=O)[C@H](C[C@@H]1C[C@@H](C)NC1=O)NC(=O)c1cc(Cl)ccc1NC(=O)OCC1CC1(F)F (stereo partly shown) [Example 186] 2.5

Tell me its IC50 on SARS2 coronavirus 3CL protease (Severe acute respiratory syndrome coronavirus 2): CNC(=O)C(=O)[C@H](C[C@@H]1C[C@@H](C)NC1=O)NC(=O)c1cc(Cl)ccc1NC(=O)C1CCCC(F)(F)C1 (single isomer, unassigned) [Example 199] 18.7

Write down measured IC50 (SARS2 coronavirus 3CL protease (Severe acute respiratory syndrome coronavirus 2)) for this compound. C[C@@H]1C[C@@H](C[C@H](NC(=O)c2cc(Cl)ccc2NC(=O)C2CC2C(F)(F)F)C(=O)C(=O)NC2CC2)C(=O)N1 (stereo partly shown) [Example 97] 7.7

###

Target: SARS2 coronavirus 3CL protease (Severe acute respiratory syndrome coronavirus 2)
Experiment: biochemical
Conditions: 5 nM enzyme, 30 min pre-incubation with compound, 15 μM peptide substrate, 4 h at room temperature; read-out: FRET Potency (nM); IC50 values in the SARS2 3CLPro FRET assay
Cut-off 10 nM on IC50: below means true (1), at or above means false (0).

Use these answered entries as a reference point.
- compound: "CNC(=O)C(=O)[C@H](C[C@@H]1C[C@@H](C)NC1=O)NC(=O)c1cc(Cl)ccc1NC(=O)OC1CCC1"
  class-name: "true (1)"
- compound: "CNC(=O)C(=O)[C@H](C[C@@H]1C[C@@H](C)NC1=O)NC(=O)c1cc(Cl)ccc1NC(=O)C(C)c1ccnc(C(F)(F)F)c1 (stereo partly drawn) [Example 227]"
  class-name: "true (1)"
- compound: "C[C@@H]1C[C@@H](C[C@H](NC(=O)c2cc(Cl)ccc2NC(=O)N(C)CC2CCC(F)(F)CC2)C(=O)C(=O)NC2CC2)C(=O)N1"
  class-name: "false (0)"

Take the compound "CNC(=O)C(=O)[C@H](C[C@@H]1C[C@@H](C)NC1=O)NC(=O)c1cc(C#N)ccc1NC(=O)OC1CC1" and say whether its IC50 is less than 10 nM. false (0)

Given "CNC(=O)C(=O)[C@H](C[C@@H]1C[C@@H](C)NC1=O)NC(=O)c1cc(F)ccc1NC(=O)OC1CC1" , is recorded IC50 strictly lower than 10 nM? false (0)

Hello, is IC50 of the following compound strictly smaller than 10 nM? "C[C@@H]1C[C@@H](C[C@H](NC(=O)c2cc(C#N)ccc2NC(=O)c2cccc(F)c2)C(=O)C(=O)NC2CC2)C(=O)N1" false (0)

###

Target: SARS2 coronavirus 3CL protease (Severe acute respiratory syndrome coronavirus 2, UniProt P0DTD1)
Assay: biochemical
Conditions: 5 nM enzyme, 30 min pre-incubation with compound, 15 μM peptide substrate, 4 h at room temperature; read-out: FRET Potency (nM); IC50 values in the SARS2 3CLPro FRET assay
Below, each entry is listed alongside its reported IC50.
Form entry: value (nM) — number only.

Given the compound CC(C(=O)Nc1ccc(Cl)cc1C(=O)N[C@@H](C[C@@H]1C[C@@H](C)NC1=O)C(=O)C(=O)NC1CC1)c1cscn1 (stereo partly shown) [Example 93] , write its reported IC50. 12.6

Give the reported value of IC50 for this record: CNC(=O)C(=O)[C@H](C[C@@H]1C[C@@H](C)NC1=O)NC(=O)c1cc(C(F)F)ccc1NC(=O)C1(C(F)(F)F)CC1 [Example 203] 36.6

Respond only with IC50 recorded for CNC(=O)C(=O)[C@H](C[C@@H]1CCNC1=O)NC(=O)c1cc(Cl)ccc1NC(=O)C1CC1 [Example 110] 3.1

Please supply the value of reported IC50 for the item CNC(=O)C(=O)[C@H](C[C@@H]1CCNC1=O)NC(=O)c1cc(Cl)ccc1NC(=O)OC(C)(C)C [Example 142] 41.1
